System: MPNST complex spheroid with HUVEC/MSC, growth, % test/control
testDetails: Anticancer human tumor MPNST cell line growth inhibition [Asc];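 also: compounds left on spheroids for seven days before reading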
experimentalParameters: curve of first compound; second compound 0.316 µM
pIC50: −log10 of the molar value.
measuredMetric: pIC50

compound="CCN1C(C(=O)NC23CCC(C(=O)O)(CC2)CC3)C(c2cccc(Cl)c2F)C2(C(=O)Nc3cc(Cl)ccc32)C12CCCCC2 (stereo not drawn) + Cc1c(S(C)(=O)=O)c(-c2cc(F)cc(N3CCN(c4ccc(NS(=O)(=O)c5ccc(NC(CCN6CCC(C(=O)OCCCP(=O)(O)O)CC6)CSc6ccccc6)c(S(=O)(=O)C(F)(F)F)c5)cc4)CC3)c2)c(-c2ccc(Cl)cc2)n1C(C)C" observedresult="< 5.52"
compound="Cn1ncnc1[C@H]1c2n[nH]c(=O)c3cc(F)cc(c23)N[C@@H]1c1ccc(F)cc1 + CNC(C)C(=O)NC1CN(S(=O)(=O)c2cccc(S(=O)(=O)N3CCC4CCC(C(=O)NC(c5ccccc5)c5ccccc5)N4C(=O)C(NC(=O)C(C)NC)C3)c2)CCC2CCC(C(=O)NC(c3ccccc3)c3ccccc3)N2C1=O" observedresult=7.57
compound="O=C(c1cc(Cc2n[nH]c(=O)c3ccccc23)ccc1F)N1CCN(C(=O)C2CC2)CC1 + Cc1c(S(C)(=O)=O)c(-c2cc(F)cc(N3CCN(c4ccc(NS(=O)(=O)c5ccc(NC(CCN6CCC(C(=O)OCCCP(=O)(O)O)CC6)CSc6ccccc6)c(S(=O)(=O)C(F)(F)F)c5)cc4)CC3)c2)c(-c2ccc(Cl)cc2)n1C(C)C" observedresult="< 5.00"

====

System: MPNST complex spheroid with HUVEC/MSC, growth, % test/control
testDetails: Anticancer human tumor MPNST cell line growth inhibition [Asc];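 also: compounds left on spheroids for seven days before reading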
experimentalParameters: curve of first compound; second compound 0.316 µM
pIC50: −log10 of the molar value.
The following molecules are shown together with reported pIC50 values.
measuredMetric: pIC50

molecule="C#Cc1c(F)ccc2cc(O)cc(-c3ncc4c(N5CC6CCC(C5)N6)nc(OCC56CCCN5CC(F)C6)nc4c3F)c12 (configuration not stated) + Cc1c(S(C)(=O)=O)c(-c2cc(F)cc(N3CCN(c4ccc(NS(=O)(=O)c5ccc(NC(CCN6CCC(C(=O)OCCCP(=O)(O)O)CC6)CSc6ccccc6)c(S(=O)(=O)C(F)(F)F)c5)cc4)CC3)c2)c(-c2ccc(Cl)cc2)n1C(C)C" observedresult="< 5.00"
molecule="CCN1CCN(Cc2ccc(Nc3ncc(F)c(-c4cc(F)c5nc(C)n(C(C)C)c5c4)n3)nc2)CC1 + Cc1c(S(C)(=O)=O)c(-c2cc(F)cc(N3CCN(c4ccc(NS(=O)(=O)c5ccc(NC(CCN6CCC(C(=O)OCCCP(=O)(O)O)CC6)CSc6ccccc6)c(S(=O)(=O)C(F)(F)F)c5)cc4)CC3)c2)c(-c2ccc(Cl)cc2)n1C(C)C" observedresult="< 6.00"

====

System: MPNST complex spheroid with HUVEC/MSC, growth, % test/control
testDetails: Anticancer human tumor MPNST cell line growth inhibition [Asc];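 also: compounds left on spheroids for seven days before reading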
experimentalParameters: second compound 0.1 µM; first compound 10 µM; stronger effect = lower value
measuredMetric: viability, T/C (%)

molecule="C=C(F)C(=O)N1CCN(c2nc(OCC3CCCN3C)nc3c2CCN(c2cccc4cccc(Cl)c24)C3)CC1CC#N (stereo not drawn) + CNC(C)C(=O)NC1CN(S(=O)(=O)c2cccc(S(=O)(=O)N3CCC4CCC(C(=O)NC(c5ccccc5)c5ccccc5)N4C(=O)C(NC(=O)C(C)NC)C3)c2)CCC2CCC(C(=O)NC(c3ccccc3)c3ccccc3)N2C1=O" valueunits=% observedresult=1.36
molecule="C=CC(=O)N1CCN(c2nc(=O)n(-c3c(C)ccnc3C(C)C)c3nc(-c4c(O)cccc4F)c(F)cc23)C(C)C1 (stereo not drawn) + Cc1c(S(C)(=O)=O)c(-c2cc(F)cc(N3CCN(c4ccc(NS(=O)(=O)c5ccc(NC(CCN6CCC(C(=O)OCCCP(=O)(O)O)CC6)CSc6ccccc6)c(S(=O)(=O)C(F)(F)F)c5)cc4)CC3)c2)c(-c2ccc(Cl)cc2)n1C(C)C" valueunits=% observedresult=105
molecule="C=C(F)C(=O)N1CCN(c2nc(OCC3CCCN3C)nc3c2CCN(c2cccc4cccc(Cl)c24)C3)CC1CC#N (stereo not drawn) + Cc1c(S(C)(=O)=O)c(-c2cc(F)cc(N3CCN(c4ccc(NS(=O)(=O)c5ccc(NC(CCN6CCC(C(=O)OCCCP(=O)(O)O)CC6)CSc6ccccc6)c(S(=O)(=O)C(F)(F)F)c5)cc4)CC3)c2)c(-c2ccc(Cl)cc2)n1C(C)C" valueunits=% observedresult=51.3

====

Test system: MPNST complex spheroid with HUVEC/MSC, growth, % test/control
testDetails: Anticancer human tumor MPNST cell line growth inhibition [Asc];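 also: compounds left on spheroids for seven days before reading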
experimentalParameters: curve of first compound; second compound 0.0316 µM
From the text: Multicellular complex tumor spheroid response to apoptosis pathway targeting inhibitors Alrizomadlin, Pelcitoclax, and Dasminapant in combination with a variety of drugs and investigational agents in selected tumor cell lines […] Compounds. […] If the clinical Cmax for an agent had not been determined, the highest concentration tested was 10 microM. […]
Measured IC50, listed per entry.
measuredMetric: IC50

compound="C=CC(=O)N1CCN(c2nc(=O)n(-c3c(C)ccnc3C(C)C)c3nc(-c4c(O)cccc4F)c(F)cc23)C(C)C1 (configuration not stated) + CNC(C)C(=O)NC1CN(S(=O)(=O)c2cccc(S(=O)(=O)N3CCC4CCC(C(=O)NC(c5ccccc5)c5ccccc5)N4C(=O)C(NC(=O)C(C)NC)C3)c2)CCC2CCC(C(=O)NC(c3ccccc3)c3ccccc3)N2C1=O" observedresult="> 10 µM"
compound="CCN1CCN(Cc2ccc(Nc3ncc(F)c(-c4cc(F)c5nc(C)n(C(C)C)c5c4)n3)nc2)CC1 + CNC(C)C(=O)NC1CN(S(=O)(=O)c2cccc(S(=O)(=O)N3CCC4CCC(C(=O)NC(c5ccccc5)c5ccccc5)N4C(=O)C(NC(=O)C(C)NC)C3)c2)CCC2CCC(C(=O)NC(c3ccccc3)c3ccccc3)N2C1=O" observedresult="> 1 µM"

====

Test system: MPNST complex spheroid with HUVEC/MSC, growth, % test/control
testDetails: Anticancer human tumor MPNST cell line growth inhibition [Asc];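 also: compounds left on spheroids for seven days before reading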
experimentalParameters: second compound 0.0949 µM; first compound 0.1 µM; stronger effect = lower value
measuredMetric: viability, T/C

compound="CNC(C)C(=O)NC1CN(S(=O)(=O)c2cccc(S(=O)(=O)N3CCC4CCC(C(=O)NC(c5ccccc5)c5ccccc5)N4C(=O)C(NC(=O)C(C)NC)C3)c2)CCC2CCC(C(=O)NC(c3ccccc3)c3ccccc3)N2C1=O (configuration not stated) + CCN1C(C(=O)NC23CCC(C(=O)O)(CC2)CC3)C(c2cccc(Cl)c2F)C2(C(=O)Nc3cc(Cl)ccc32)C12CCCCC2" observedresult=100%
compound="O=C(c1cc(Cc2n[nH]c(=O)c3ccccc23)ccc1F)N1CCN(C(=O)C2CC2)CC1 + CCN1C(C(=O)NC23CCC(C(=O)O)(CC2)CC3)C(c2cccc(Cl)c2F)C2(C(=O)Nc3cc(Cl)ccc32)C12CCCCC2" observedresult=115%

====

Test system: MPNST complex spheroid with HUVEC/MSC, growth, % test/control
testDetails: Anticancer human tumor MPNST cell line growth inhibition [Asc];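 also: compounds left on spheroids for seven days before reading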
experimentalParameters: curve of first compound; second compound 0.316 µM
pIC50: −log10 of the molar value.
measuredMetric: pIC50

compound="C=C(F)C(=O)N1CCN(c2nc(OCC3CCCN3C)nc3c2CCN(c2cccc4cccc(Cl)c24)C3)CC1CC#N (stereo not drawn) + CNC(C)C(=O)NC1CN(S(=O)(=O)c2cccc(S(=O)(=O)N3CCC4CCC(C(=O)NC(c5ccccc5)c5ccccc5)N4C(=O)C(NC(=O)C(C)NC)C3)c2)CCC2CCC(C(=O)NC(c3ccccc3)c3ccccc3)N2C1=O" measuredmetric=pIC50 observedresult=5.46
compound="C#Cc1c(F)ccc2cc(O)cc(-c3ncc4c(N5CC6CCC(C5)N6)nc(OCC56CCCN5CC(F)C6)nc4c3F)c12 (stereo not drawn) + CNC(C)C(=O)NC1CN(S(=O)(=O)c2cccc(S(=O)(=O)N3CCC4CCC(C(=O)NC(c5ccccc5)c5ccccc5)N4C(=O)C(NC(=O)C(C)NC)C3)c2)CCC2CCC(C(=O)NC(c3ccccc3)c3ccccc3)N2C1=O" measuredmetric=pIC50 observedresult="< 5.00"
compound="C=CC(=O)N1CCN(c2nc(=O)n(-c3c(C)ccnc3C(C)C)c3nc(-c4c(O)cccc4F)c(F)cc23)C(C)C1 (stereo not drawn) + CNC(C)C(=O)NC1CN(S(=O)(=O)c2cccc(S(=O)(=O)N3CCC4CCC(C(=O)NC(c5ccccc5)c5ccccc5)N4C(=O)C(NC(=O)C(C)NC)C3)c2)CCC2CCC(C(=O)NC(c3ccccc3)c3ccccc3)N2C1=O" measuredmetric=pIC50 observedresult="< 5.00"

====

System: MPNST complex spheroid with HUVEC/MSC, growth, % test/control
testDetails: Anticancer human tumor MPNST cell line growth inhibition [Asc];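 also: compounds left on spheroids for seven days before reading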
experimentalParameters: second compound 1 µM; first compound 0.00316 µM; stronger effect = lower value
Entries annotated with measured viability, T/C
measuredMetric: viability, T/C (%)

compound="Cn1ncnc1[C@H]1c2n[nH]c(=O)c3cc(F)cc(c23)N[C@@H]1c1ccc(F)cc1 + CNC(C)C(=O)NC1CN(S(=O)(=O)c2cccc(S(=O)(=O)N3CCC4CCC(C(=O)NC(c5ccccc5)c5ccccc5)N4C(=O)C(NC(=O)C(C)NC)C3)c2)CCC2CCC(C(=O)NC(c3ccccc3)c3ccccc3)N2C1=O" measuredmetric="viability, T/C" valueunits=% observedresult=49.5
compound="O=C(c1ccc(F)c(F)c1Nc1ccc(I)cc1F)N1CC(O)([C@@H]2CCCCN2)C1 + CNC(C)C(=O)NC1CN(S(=O)(=O)c2cccc(S(=O)(=O)N3CCC4CCC(C(=O)NC(c5ccccc5)c5ccccc5)N4C(=O)C(NC(=O)C(C)NC)C3)c2)CCC2CCC(C(=O)NC(c3ccccc3)c3ccccc3)N2C1=O" measuredmetric="viability, T/C" valueunits=% observedresult=70.1
compound="CNC(C)C(=O)NC1CN(S(=O)(=O)c2cccc(S(=O)(=O)N3CCC4CCC(C(=O)NC(c5ccccc5)c5ccccc5)N4C(=O)C(NC(=O)C(C)NC)C3)c2)CCC2CCC(C(=O)NC(c3ccccc3)c3ccccc3)N2C1=O (stereo not drawn) + Cc1c(S(C)(=O)=O)c(-c2cc(F)cc(N3CCN(c4ccc(NS(=O)(=O)c5ccc(NC(CCN6CCC(C(=O)OCCCP(=O)(O)O)CC6)CSc6ccccc6)c(S(=O)(=O)C(F)(F)F)c5)cc4)CC3)c2)c(-c2ccc(Cl)cc2)n1C(C)C" measuredmetric="viability, T/C" valueunits=% observedresult=145

Where do these numbers come from? They come from PubChem BioAssay AID1963442.
